Assign activity change, negative = inhibition to each entry below.
assay: AP1 Signaling Pathway (AID 357); conditions: ME-180 AP-1-bla reporter, EGF-induced, beta-lactamase ratio, 5 h; at 7.69 µM (top of the series) unless noted;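 further: ME-180 reporter cells stimulated with EGF at its EC50 level; on the % scale 0 is the no-effect control and ±100 the full control effect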
Records with an inconclusive call do not appear.
Give bare numbers, in %.

Use the examples below as a reference point.
compound=CC(C)(CN)CN quantity_name="activity change, negative = inhibition" quantitative_result=0.738
compound=O=C(O)C1(C(=O)O)CCN(S(=O)(=O)c2ccccc2)CC1 quantity_name="activity change, negative = inhibition" quantitative_result=-0.169
compound=CC1(CCC(=O)OC2CCCCC2)OCCO1 quantity_name="activity change, negative = inhibition" quantitative_result=4.96

Respectfully, I request activity change, negative = inhibition for each entry included below.
1. [N-]=[N+]=NC[C@@H]1O[C@@H](n2cnc3c(N)ncnc32)[C@@H]2O[C@@H]21
2. CC1(C)OC[C@@H]2O[C@H](n3cnc4c(N)nc(Cl)nc43)[C@@H](OS(C)(=O)=O)[C@@H]2O1
3. CC[N+](C)(CC)CCN1C(=O)c2ccccc2S1(=O)=O
4. C[C@@]12C[C@H](O)[C@@H]3[C@H](CCC4=CC(=O)CC[C@]43C)[C@H]1CC[C@@H]2c1csc(N)n1

Outgoing:
8.89
-1.96
7.73
4.13

* * *

Assay: NFAT Signaling Pathway (AID 444);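 further: carbachol stimulus at about its EC50 of 1 µM final; on the % scale 0 is the no-effect control and ±100 the full control effect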
Conditions: Jurkat NFAT-bla M1, carbachol, beta-lactamase ratio, 5 h; at 7.69 µM (top of the series) unless noted
Procedure: NCGC Assay Overview: The nuclear factor of activated T cells (NFAT) family of transcription factors has been found primarily in most immune system cells and some other non-immune cells. NFAT plays the immunomodulatory role, primarily in T-cell activation and differentiation. […] NCGC Assay Protocol Summary: The cells were prepared in RPMI 1640 medium containing 0.1% dialyzed FBS and 25 mM HEPES at 1.6 x 10^6cell/ml. […] The %Activity was determined from the ratio of 460nm/530nm. […]
Inconclusive results are not listed. Activity calls are given as the source filed them. Calls follow the shape of the dose curve; as a rule, active = well fitted curve in either direction with a large enough effect (not every such curve was filed as active); inconclusive = small, poorly fitted or top-dose-only effect, or another doubt; inactive = flat fitted curve, though single readings scatter.
Mark one answer only. Choices: active, inactive

compound=Nc1nc(Nc2ccccc2)nc2c1ncn2[C@@H]1O[C@@H](CO)[C@H](O)[C@@H]1O assigned_class=inactive
compound=C[N+](C)(C)CC(=O)N/N=C\c1ccncc1 assigned_class=inactive
compound=O=S(=O)(O)c1ccc(N=Nc2ccccc2)cc1 assigned_class=inactive

Incoming: Write down the call the test reported for this compound. Item: N#Cc1c(NC(=O)C(F)(F)F)sc2c3c(=O)c4ccccc4c(=O)c=3oc3ccccc3c12
Outgoing: inactive

Incoming: Now consider Nc1ccc(N(S(=O)(=O)c2ccccc2)S(=O)(=O)c2ccccc2)c(Cl)c1 and answer again.
Outgoing: inactive

Incoming: Now consider CC[C@@H]1CN2CCc3cc(OC)c(OC)cc3[C@H]2C[C@@H]1C[C@H]1NCCc2cc(OC)c(OC)cc21 and answer again.
Outgoing: active

* * *

assay: AP1 Signaling Pathway (AID 357); conditions: ME-180 (cervical carcinoma) AP-1-bla reporter, EGF-induced, beta-lactamase ratio, 5 h; at 7.69 µM (top of the series) unless noted;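 further: ME-180 reporter cells stimulated with EGF at its EC50 level; on the % scale 0 is the no-effect control and ±100 the full control effect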
Records with an inconclusive call do not appear. Active and inactive are the calls of the source. Calls follow the shape of the dose curve; as a rule, active = well fitted curve in either direction with a large enough effect (not every such curve was filed as active); inconclusive = small, poorly fitted or top-dose-only effect, or another doubt; inactive = flat fitted curve, though single readings scatter.
quantity name: activity change, negative = inhibition

Use the examples below as a reference point.
compound=O=C(O)c1nc(-c2ccccc2)[nH]c1C(=O)O quantity_name="activity change, negative = inhibition" result="-6.16% (inactive)"
compound=CNc1ncncc1-c1ccc(C(=O)N(C)C)cc1 quantity_name="activity change, negative = inhibition" result="-7.23% (inactive)"
compound=N#CC(CC(=O)O)=C(c1ccccc1)c1ccccc1 quantity_name="activity change, negative = inhibition" result="6.62% (inactive)"
compound=Cc1nc2ccccc2nc1-c1ccc(N=[N+]([O-])c2ccc(-c3nc4ccccc4nc3C)cc2)cc1 quantity_name="activity change, negative = inhibition" result="6.31% (inactive)"
compound=CCCCN(c1ccccc1)c1ncnc2c1cnn2C quantity_name="activity change, negative = inhibition" result="-1.19% (inactive)"

Respectfully, I request activity change, negative = inhibition for each entry included below.
1. O=C(O)C[C@@H](C(=O)O)c1ccccc1[N+](=O)[O-]
2. O=C(CSC1=NCCN1)c1ccccc1
3. Cc1cc(=O)oc2cc(O)c(CN(C)CC(=O)O)cc12
4. O=C(O)c1c(Cl)c(Cl)c(Cl)c(Cl)c1C(=O)Nc1ccc2cn[nH]c2c1

Outgoing:
1. 10.5% (inactive)
2. -0.79% (inactive)
3. 8.78% (inactive)
4. 1.63% (inactive)

Respectfully, I request activity change, negative = inhibition for each entry included below.
1. [O-][N+]1(CC[N+]2([O-])CCCCC2)CCCCC1
2. CN(C)C(=O)/N=N\C(=O)N(C)C
3. Nc1nc(Nc2ccccc2)nc2c1ncn2[C@@H]1O[C@@H](CO)[C@H](O)[C@@H]1O
4. N=C(N)SCCCN
5. C[C@@H]1C[C@H]2[C@H]3C[C@@H](F)C4=CC(=O)C=C[C@]4(C)[C@@]3(Cl)[C@@H](O)C[C@@]2(C)[C@@H]1C(=O)COC(=O)C(C)(C)C
6. Oc1c(CN2CCOCC2)ccc(CN2CCOCC2)c1O

Outgoing:
1. -8.89% (inactive)
2. 9.37% [at 38 µM] (inactive)
3. -5.61% [at 38 µM] (inactive)
4. 2.32% (inactive)
5. -11.4% [at 17.2 µM] (inactive)
6. -1.19% (inactive)

Respectfully, I request activity change, negative = inhibition for each entry included below.
1. O=C(O)c1ccc([N+](=O)[O-])c(P(=O)(O)O)c1
2. CN1CCN(CN2C(=O)C3C4C=CC(C3C2=O)C2C3C(=O)N(CN5CCN(C)CC5)C(=O)C3C42)CC1 (stereo not given)
3. NC(Cc1ccccc1)=NCC(=O)O
4. CCN1/C(=C\C(C)=O)Sc2ccc(OC)cc21
5. c1ccc(CNCCN2CCNCC2)nc1

Outgoing:
-2.71% (inactive)
4.11% (inactive)
2% (inactive)
-18.4% [at 38 µM] (inactive)
4.86% (inactive)
